FYI, the data here is from paper PMC10786891.

target-entity: T1, EsCas13d, nuclease-dead (Eubacterium siraeum, UniProt B0MS50, R295A;H300A;R849A;H854A)
T1 sequence: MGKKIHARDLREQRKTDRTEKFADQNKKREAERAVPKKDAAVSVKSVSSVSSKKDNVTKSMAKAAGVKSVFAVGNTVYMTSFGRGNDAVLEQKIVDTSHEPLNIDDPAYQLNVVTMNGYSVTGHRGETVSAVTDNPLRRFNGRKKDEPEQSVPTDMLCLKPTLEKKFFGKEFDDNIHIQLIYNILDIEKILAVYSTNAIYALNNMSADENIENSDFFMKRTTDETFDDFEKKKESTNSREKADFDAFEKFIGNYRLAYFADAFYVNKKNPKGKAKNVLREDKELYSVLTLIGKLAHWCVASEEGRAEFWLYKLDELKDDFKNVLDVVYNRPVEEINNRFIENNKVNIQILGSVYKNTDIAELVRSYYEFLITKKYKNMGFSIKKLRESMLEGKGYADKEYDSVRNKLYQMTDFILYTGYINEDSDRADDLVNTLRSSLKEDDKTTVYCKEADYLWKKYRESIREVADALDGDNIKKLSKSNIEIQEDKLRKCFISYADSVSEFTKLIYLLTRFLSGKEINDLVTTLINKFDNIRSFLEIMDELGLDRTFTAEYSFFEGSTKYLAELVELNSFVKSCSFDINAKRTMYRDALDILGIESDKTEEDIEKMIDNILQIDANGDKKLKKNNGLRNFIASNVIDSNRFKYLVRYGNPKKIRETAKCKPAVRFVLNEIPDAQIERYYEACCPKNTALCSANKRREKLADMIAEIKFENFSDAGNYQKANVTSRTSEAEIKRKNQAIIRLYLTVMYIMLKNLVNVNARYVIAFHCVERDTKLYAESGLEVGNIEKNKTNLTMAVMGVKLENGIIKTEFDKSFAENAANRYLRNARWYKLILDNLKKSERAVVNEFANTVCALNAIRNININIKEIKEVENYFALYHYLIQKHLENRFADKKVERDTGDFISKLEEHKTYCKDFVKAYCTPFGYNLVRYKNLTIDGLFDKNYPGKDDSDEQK
protocol-notes: crRNA (strand 1, pre-loaded); Mg2+; 40 mM Tris-HCl pH 7.5, 150 mM NaCl, 6 mM MgCl2, 1 mM DTT, 0.1% Tween-20, 0.2 mg/ml BSA; 25 C; 10 min per concentration, then washed
settings: tags: His6-TwinStrep-SUMO cleaved; N-terminal SNAP kept (SNAP-Surface 488); label: 3' end held by stalled T7 RNA polymerase

binder: target 2 MT 5'PFS GUC 3'PFS AUA (mixed) RNA 1: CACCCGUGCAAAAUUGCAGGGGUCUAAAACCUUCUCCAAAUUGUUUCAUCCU RNA 2: GGGAAUGGAUCCACAUCUACGAAUUCGUCAGGAUGAAACAAUUUGGAGAAGAUAAGAUCGGAAGAGCACACGU
unit-abbreviation: nM
Kd: 12.6
--
binder: target 1 insA 3' of 5,insC 3' of 3 (mixed) RNA 1: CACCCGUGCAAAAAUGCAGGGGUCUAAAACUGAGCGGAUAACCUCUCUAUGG RNA 2: GGGAAUGGAUCCACAUCUACGAAUUCGUACCAUAGAGAGGUUAUCCGACUCCACCGAGAUCGGAAGAGCACACGU
unit-abbreviation: nM
Kd: 12.3
--
binder: target 2 MT 5'PFS UGA 3'PFS UUC (mixed) RNA 1: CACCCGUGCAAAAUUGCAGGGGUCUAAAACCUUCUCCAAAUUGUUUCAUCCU RNA 2: GGGAAUGGAUCCACAUCUACGAAUUCUGAAGGAUGAAACAAUUUGGAGAAGUUCAGAUCGGAAGAGCACACGU
unit-abbreviation: nM
Kd: 26
--
binder: target 1 insA 3' of 12,insA 3' of 2 (mixed) RNA 1: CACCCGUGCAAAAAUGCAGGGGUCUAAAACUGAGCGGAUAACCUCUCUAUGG RNA 2: GGGAAUGGAUCCACAUCUACGAAUUCGUACCAUAGAGAGGAUUAUCCGCUCAACCGAGAUCGGAAGAGCACACGU
unit-abbreviation: nM
Kd: 34.2
